B1: Glucocorticoid receptor, residues 419 to 494; numbered along this chain, P04150 (parent)
chain: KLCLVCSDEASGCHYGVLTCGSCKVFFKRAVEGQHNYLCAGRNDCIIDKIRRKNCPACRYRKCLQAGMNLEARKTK

# Variants of: B1
# assay-text: abundance fitness (aPCA) (normalised: wild type 0, dead -1); higher = more abundant; growth selection in yeast, the domain comes from the species named
# settings: Homo sapiens
observed-property: abundance fitness
Answer as a number with no unit attached.

Examples with answers:
>  <mutation-name>
K1Y

>  <assay-result>
-0.101

$$$$
>  <mutation-name>
K74W

>  <assay-result>
-0.017

$$$$
>  <mutation-name>
C55M

>  <assay-result>
-1.16

$$$$
>  <mutation-name>
C13E

>  <assay-result>
0.04

$$$$
>  <mutation-name>
A40D

>  <assay-result>
-0.136

$$$$

Please report the recorded abundance fitness for T75D .
0.023

Please report the recorded abundance fitness for K62R .
-0.05

Please report the recorded abundance fitness for E71T .
-0.076

Data provenance: the Human Domainome abundance scans (Beltran et al. 2025)
